The reported measurements were obtained from ChEMBL document CHEMBL1201862.

Kindly supply the reported GI50 values for the records listed here.
# System: BT-549
# Measurement description: NCI tumour cell line growth inhibition, 48 h
Activity calls are given as the source filed them. Rule as the data show it: active = GI50 up to about 1.1 µM and inactive = higher.

[[record]]
compound = "COc1ccc(Nc2nc3ccccc3nc2C(=O)O)cc1"
target = "BT-549"
result = "> 100 µM (inactive)"


For each listed entry, give its GI50.
1. O=P1(N(CCCl)CCCl)Oc2ccc(Cl)cc2C(C(Cl)(Cl)Cl)c2cc(Cl)ccc2O1 (stereo unspecified)
2. Cc1nc(N)nc2ccccc12
3. Cc1nc(OCc2ccccc2)c2ncn(CCO)c2n1
4. O=C1CCC2(c3ccc(Cl)cc3)Nc3ncncc3N12 (stereo unspecified)
5. O=C(NNC(=O)c1ccccc1O)c1ccc(O)cc1

output:
29.8 µM (inactive)
> 100 µM (inactive)
> 100 µM (inactive)
> 10 µM (inactive)
40.6 µM (inactive)

====

Would you mind telling me the reported GI50 of each entry?
# Tested on: SNB-19
# Measurement description: NCI tumour cell line growth inhibition, 48 h
The source made the active and inactive calls. Rule as the data show it: active = GI50 up to about 1.1 µM and inactive = higher.

Study these solved cases before continuing.
[[record]]
compound = "Fc1ccc(C(OCCN2CCN(CCCc3ccccc3)CC2)c2ccc(F)cc2)cc1"
result = "3.99 µM (inactive)"

[[record]]
compound = "CCCCCCCCCCCCOCCOCCOCCOCCOCCOCC(=O)NC(Cc1ccccc1)C(=O)Oc1ccc([N+](=O)[O-])cc1 (stereo unspecified)"
result = "47.3 µM (inactive)"


Each compound below has a reported value. Please supply its GI50.
1. O=[N+]([O-])c1ccc(NS(=O)(=O)C(F)(F)F)cc1
2. COC(=O)N1C=Cc2c(c(C)c3c([nH]c4ccccc43)c2C)C1C (stereo unspecified)
3. NNC(=S)NCCNC(=S)NN
4. O=C(O)c1ccccc1NCn1c(=S)sc2ccccc21
5. CC(C)(C)OC(=O)NC(Cc1ccccc1)C(=O)N[C@H]1c2ccsc2/C(=N/O)[C@H]1O (stereo partly specified)
6. C=C(C)C(=O)O[C@H]1CC2=CC(CC(C)=C[C@H]3OC(=O)C(=C)C13)OC2=O (stereo partly specified)

output:
1: > 100 µM (inactive); 2: 18 µM (inactive); 3: > 100 µM (inactive); 4: 76.7 µM (inactive); 5: > 100 µM (inactive); 6: > 100 µM (inactive)

====

# Test system: SK-MEL-2
# Measurement description: NCI tumour cell line growth inhibition, 48 h
Calls of active or inactive are those of the source. No stated cut-off is given here; in the data, active = GI50 up to about 1.1 µM and inactive = higher.
Assay readout: GI50

Below, 5 compounds whose answers are already recorded.
[[record]]
compound = "O=C1c2cccc3cccc(c23)C(=O)N1O"
target = "SK-MEL-2"
result = "86.5 µM (inactive)"

[[record]]
compound = "N#C/C(=C/c1ccco1)C(=O)c1ccccc1"
target = "SK-MEL-2"
result = "> 100 µM (inactive)"

[[record]]
compound = "C=C1C(=O)O[C@H]2[C@H]3O[C@@H](C[C@@H]12)[C@](C)(O)CCCC(C)=CCC[C@H]3C"
target = "SK-MEL-2"
result = "15 µM (inactive)"

[[record]]
compound = "CC1C(/C=C/c2ccoc2)ON2CCCC12 (stereo not given)"
target = "SK-MEL-2"
result = "> 100 µM (inactive)"

[[record]]
compound = "C=C1CC[C@](C)(O)[C@@]2(C)CC[C@H]3C(=C(C)C)C(=O)C[C@]3(C)C[C@H]12"
target = "SK-MEL-2"
result = "> 50 µM (inactive)"


Could you report GI50 for every entry in the following list?
1. COC(C(O)c1ccc2c(c1)OCO2)P(=O)(c1ccccc1)c1ccccc1 (stereo not given)
2. CCOC(=O)C1CCn2c(nc3c(=O)n(C)c(=O)n(C)c32)S1 (stereo not given)
3. COC(CC1(/C=C/O[Si](C(C)C)(C(C)C)C(C)C)C(=O)N(COCC[Si](C)(C)C)c2ccccc21)OC (stereo not given)

output:
> 100 µM (inactive)
> 100 µM (inactive)
13.3 µM (inactive)

Batch request: GI50 per item, same order as input.
1. COC(=O)N1C=Cc2c(c(C)c3c([nH]c4ccccc43)c2C)C1C (stereo not given)
2. Cc1ccc(/C=C2\Cc3c(C)cc(C)cc3C2=O)c(C(=O)O)c1

output:
["18.3 µM (inactive)", "24.4 µM (inactive)"]
